# TEST SUMMARY: qHTS RealTime-Glo MT Cell Viability Assay in HEK293 cells - 24 hour (AID 1224886); note: nearly all actives have a fitted effect of over 50% in size
# CONDITION CONTEXT: RealTime-Glo luminescence; series mostly up to 76.8 µM
Records with an inconclusive call do not appear. Active and inactive are the calls of the source. Calls come from the whole dose curve; as a rule, active = well fitted cell-killing curve with a large enough effect in the repeat runs; inconclusive = weak or mixed curves, or effect the other way; inactive = flat fitted curve, though single readings scatter.
Classes used: active, inactive

> print(dat)
                                    compound  label.value
 1  CCC(C)Nc1ccc(NC(C)CC)cc1 (configuration not stated)       active
 2        NNc1nc(-c2ccc([N+](=O)[O-])cc2)cs1       active
 3                        Cc1ccc(O)c2ncccc12     inactive
 4  O=C(O)c1cc(O)c2c(c1)C(=O)c1cccc(O)c1C2=O     inactive
 5                    Cc1cccc(S(=O)(=O)O)c1C     inactive
 6               CC(C)C(C)(C)C(C)(C)C(C)(C)S     inactive
 7         CCCCCCCCCCn1cc[n+](CCCCCCCCCC)c1C       active
 8                       Nc1c(Cl)cc(Cl)cc1Cl     inactive
 9                       CN(C)c1ccc(SC#N)cc1     inactive
10        O=[N+]([O-])c1cc(Cl)c(Cl)c(Cl)c1Cl     inactive
11  CCCCc1oc2ccc(NS(C)(=O)=O)cc2c1C(=O)c1ccc(OCCCN(CCCC)CCCC)cc1       active
12  CCc1cc(SCc2sc(-c3ccc(C(F)(F)F)cc3)nc2CN2CCN(c3ccc(OC)cc3)CC2)ccc1OCC(=O)O       active
